Where do these numbers come from? They come from PubChem BioAssay (NCATS).

Below: a set of entries, each annotated with reported activity, negative = inhibition.
experiment: Stat Signaling Pathway (AID 446); details: ME-180 (cervical carcinoma) SIE beta-lactamase reporter, IL-6 stimulated, 5 h; at 17.2 µM (top of the series) unless noted;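 further: ME-180 cervical cancer cells given 40 pM IL-6 alongside compound; SIE-controlled beta-lactamase reporter measured as 460/530 nm FRET emission ratio; on the % scale 0 is the no-effect control and ±100 the full control effect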
Records with an inconclusive call do not appear. Calls of active or inactive are those of the source. The call rests on the fitted dose curve; in most records, active means well fitted curve in either direction with a large enough effect (not every such curve was filed as active); inconclusive means small, poorly fitted or top-dose-only effect, or another doubt; inactive means flat fitted curve, though single readings scatter.

Use the examples below as a reference point.
Sure, the documented activity, negative = inhibition for COc1cc(-c2nn3c(C4CCCCC4)nnc3s2)cc(OC)c1OC is 0.0449% (inactive)

Lab note: COc1ccc(-c2cc(-c3ccccc3)n3ncnc3n2)cc1 gave activity, negative = inhibition of 1.12% (inactive)

The measured activity, negative = inhibition associated with CC(=O)O[C@]12CC[N@+]3(C)CCCC[C@@H]3[C-]1Nc1ccccc12 reads 1.87% [at 7.69 µM] (inactive)

Data point: CCOC(=O)CNC(=O)Nc1ccccc1C(=O)OC ; activity, negative = inhibition = 11.5% (inactive)

Sure, the documented activity, negative = inhibition for O=C(Nc1nc(=O)c2ccccc2s1)c1ccccc1 is -3.03% (inactive)

Lab book: activity, negative = inhibition of CN1c2ccccc2N(C)C1c1c(O)ccc2ccccc12 noted as -4.67% (inactive)

Entry CC(=O)OCC(=O)[C@@]1(O)CC[C@H]2[C@@H]3CCC4=CC(=O)C=C[C@]4(C)[C@@]3(Cl)[C@@H](Cl)C[C@@]21C ; activity, negative = inhibition = -0.258% (inactive)

Looking up COc1ccc(C(=O)c2ccc(N3CCOCC3)cc2)c(OC)c1 , I found its activity, negative = inhibition recorded as 1.25% (inactive)

More entries:
activity, negative = inhibition in this record for CCOC(=O)c1[nH]c2ccccc2c1NC(=O)CCN1CCN(C(=O)OCC)CC1 : -0.665% (inactive)

Entry COCCNc1nc2c(c(=O)n(C)c(=O)n2C)n1Cc1cccc(C(F)(F)F)c1 , activity, negative = inhibition reported as 226% (inactive)
